# protocol.notes: Compound analysis: liver, adipose and plasma concentrations 3 days after a single oral dose
# Format: in vivo, female C57BL/6 mice
# condition.set: female, C57BL/6, mouse, in vivo, po, 10 µg/kg bw, oral dose 10 µg/kg bw; 3 days after single oral dose; read-out: Plasma concentration
# Method: Animals. Eight-week-old female C57BL/6 mice (Harlan laboratories, Venray, the Netherlands) were randomly assigned to treatment groups (six animals per group) and allowed to acclimate for 1.5 weeks. […] Compound analysis. […] Because the samples typically contained high levels of the analytes, only a small fraction was evaporated and analyzed. […] For lipid determination, samples were evaporated to dryness after the extraction step, and the amount of lipids was determined gravimetrically. […]
Below, each entry is listed alongside its reported concentration at 3 days.
Your answer is read as ng/g, so omit the unit and give the number.

>  <molecule>
Clc1cc2c(cc1Cl)Oc1cc(Cl)c(Cl)cc1O2 [TCDD, 2,3,7,8-tetrachlorodibenzodioxin, reference compound]

>  <value.units>
ng/g

>  <concentration at 3 days>
0.053

$$$$

Prompt: Entry Clc1cc2c(cc1Cl)Oc1c(cc(Cl)c(Cl)c1Cl)O2 [PeCDD, 1,2,3,7,8-pentachlorodibenzodioxin] needs its concentration at 3 days filled in; supply it.
Response: 0.032
